# TESTED_SYSTEM: human ALK2 R206H (Homo sapiens, UniProt Q04771, R206H)
# Construct: expressed in transfected cells; host or cells: HEK293 (ATCC CRL1573), lentivirus transduction, blasticidin selection
# Sequence (Q04771 21-509 R206H): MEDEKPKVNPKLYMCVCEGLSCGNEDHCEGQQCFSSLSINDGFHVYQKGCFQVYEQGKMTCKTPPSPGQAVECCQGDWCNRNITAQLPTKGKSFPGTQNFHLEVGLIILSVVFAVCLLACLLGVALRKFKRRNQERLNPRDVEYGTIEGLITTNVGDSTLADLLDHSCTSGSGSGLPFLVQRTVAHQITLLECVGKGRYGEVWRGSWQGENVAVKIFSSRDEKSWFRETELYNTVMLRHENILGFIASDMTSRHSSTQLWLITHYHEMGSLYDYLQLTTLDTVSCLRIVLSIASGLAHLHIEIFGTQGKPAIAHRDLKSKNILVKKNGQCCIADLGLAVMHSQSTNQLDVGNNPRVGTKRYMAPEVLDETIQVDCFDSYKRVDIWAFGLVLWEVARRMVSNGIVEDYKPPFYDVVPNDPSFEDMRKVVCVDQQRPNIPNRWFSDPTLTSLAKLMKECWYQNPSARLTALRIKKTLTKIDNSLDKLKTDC
# METHOD_DESCRIPTION: Cell-based ALK2-R206H cell activity assay (Smad1-Ser463/Ser465 phosphorylation by AlphaLISA in HEK293-ALK2-R206H cells)
# REPORTED_CONDITIONS: read-out: Cell Line (Cell Assay IC50)
Exercise: for every item that follows, state its recorded IC50.

Qu. Give the measured IC50 of CC(C)N1CC[C@H](c2ccc(-c3cc4c(N5CCN(C(=O)C6CC6)CC5)ccnn4c3)nc2)C1 .
Ans. < 100 nM

Qu. Tell me the measured IC50 of CC(C)NC(=O)N1CCN(c2ccnn3cc(-c4ccc([C@@]5(O)CCN(C(C)C)C5)cn4)cc23)CC1 , please.
Ans. 100 to 500 nM

Qu. Consider the compound shown here: O=C(C1CC1)N1CCN(c2ccnn3cc(-c4ccc(C5CNC5)cc4)cc23)CC1 What is its recorded IC50?
Ans. 100 to 500 nM

Qu. Field request: IC50 | item: N#C[C@H]1C[C@@H]1C(=O)N1CCN(c2ccnn3cc(-c4ccc(C5(F)CCCNC5)cc4)cc23)CC1 (some centres unmarked)
Ans. < 100 nM

Qu. Which value of IC50 has been reported for CCNC(=O)N1CCN(c2ccnn3cc(-c4ccc([C@]5(O)CCCN(C(C)C)C5)cc4)cc23)CC1 in the records?
Ans. < 100 nM

Qu. Given the compound COC1(c2ccc(-c3cc4c(N5CCN(C(=O)[C@H]6C[C@H](C#N)C6)CC5)ccnn4c3)cc2)CCN(C(C)C)CC1 , what is its reported IC50?
Ans. < 100 nM

Qu. Param item = CCN1CC(n2cc(-c3cc4c(N5CCN(C(=O)C6CC6)CC5)ccnn4c3)cn2)C1 ; retrieve measured IC50.
Ans. 100 to 500 nM

Qu. Bench note: what IC50 did CCNC(=O)N1CCN(c2ccnn3cc(-c4ccc(C5CN(C(C)C)CCN5C)cc4)cc23)CC1 (centres unmarked) show?
Ans. < 100 nM

Qu. I'd like to know its IC50. The compound in question is CCOC(=O)N1CCN(c2ccnn3cc(-c4ccc([C@]5(OC)CCN(C(C)C)C5)cc4)cc23)CC1
Ans. < 100 nM

Qu. Query (compound): CC(C)N1CCC(c2ccc(-c3cc4c(N5CCN(C(=O)[C@H]6C[C@@](C)(O)C6)CC5)ccnn4c3)cc2)CC1 ; field requested: IC50
Ans. < 100 nM

Qu. Which IC50 value belongs to CC(C)NC(=O)N1CCN(c2ccnn3cc(-c4ccc(C5CCN(C(C)C)CC5)cc4)cc23)CC1 ?
Ans. < 100 nM

Qu. Look up IC50 for this compound: CCCNC(=O)N1CCN(c2ccnn3cc(-c4ccc(C5CCN(C(C)C)CC5)cc4)cc23)CC1
Ans. < 100 nM

Qu. Which IC50 is reported for this compound? O=C(C1CC1)N1CCN(c2ccnn3cc(-c4cnn(C5CNC5)c4)cc23)CC1
Ans. 100 to 500 nM

Qu. Which IC50 is listed for COC1(c2ccc(-c3cc4c(N5CCN(C(=O)NC(C)C)CC5)ccnn4c3)nc2)CCN([C@@H](C)COC(F)F)CC1 ?
Ans. < 100 nM

Qu. Given the compound CC[C@@H](C)N1CCC(c2ccc(-c3cc4c(N5CCN(C(=O)C6CC6)CC5)ccnn4c3)cc2)CC1 , what is its reported IC50?
Ans. < 100 nM

Qu. I would be grateful if you could share the reported IC50 for CC(C)N1CCC[C@](F)(c2ccc(-c3cc4c(N5CCN(C(=O)OC6COC6)CC5)ccnn4c3)nc2)C1 .
Ans. < 100 nM

Qu. Give its IC50 value. Item: COC[C@H](C)N1CCC(OC)(c2ccc(-c3cc4c(N5CCN(C(=O)OC6COC6)CC5)ccnn4c3)nc2)CC1
Ans. < 100 nM

Qu. Can you share its IC50? I mean this compound: CCN1CCCC(Oc2ccc(-c3cc4c(N5CCN(C(=O)C6CC6)CC5)ccnn4c3)cc2)C1 (centres unmarked)
Ans. < 100 nM

Qu. Reported IC50 for COC1(c2ccc(-c3cc4c(N5CCN(C(=O)NC(C)C)CC5)ccnn4c3)c(C#N)c2)CCN(C(C)C)CC1 : what is it?
Ans. < 100 nM

Qu. Which value of IC50 has been reported for CC(C)N1CCC[C@]1(C)c1ccc(-c2cc3c(N4CCN(C(=O)C5CC5)CC4)ccnn3c2)cc1 in the records?
Ans. < 100 nM

Qu. Param item = CC(C)[C@@H](C)NC(=O)N1CCN(c2ccnn3cc(-c4ccc(C5CCN(C(C)C)CC5)cc4)cc23)CC1 ; retrieve measured IC50.
Ans. < 100 nM

Qu. # query: IC50 of entry CCOC(=O)N1CCN(c2ccnn3cc(-c4ccc([C@@]5(OC)CCCNC5)cn4)cc23)CC1
Ans. < 100 nM

Qu. What measured IC50 goes with CCN1CCN(c2ccc(-c3cc4c(N5CCN(C(=O)C6CC6)CC5)ccnn4c3)c(OC(F)F)c2)CC1 ?
Ans. 100 to 500 nM

Qu. Name the recorded IC50 for COC1(c2ccc(-c3cc4c(N5CCN(C(=O)C6CC6)CC5)ccnn4c3)cc2)CCNCC1 .
Ans. < 100 nM

Qu. Given the entry CCN1CCN(c2ccc(-c3cc4c(N5CCN(C(=O)C6CCC6)CC5)ccnn4c3)cc2)CC1 , report its measured IC50.
Ans. 100 to 500 nM

Qu. I am curious: what IC50 value has been reported for CC(C)N1CCC[C@H](c2ccc(-c3cc4c(N5CCN(C(=O)[C@H]6C[C@H](O)C6)CC5)ccnn4c3)cc2)C1 ?
Ans. < 100 nM

Qu. Give its IC50 value. Item: O=C(C1CC1)N1CCN(c2ccnn3cc(-c4ccc([C@H]5CCCN5)nc4)cc23)CC1
Ans. < 100 nM

Qu. For the compound CC(C)N1CCC(c2ccc(-c3cc4c(N5CCN(C(=O)C6CCC6)CC5)ccnn4c3)cc2)C1 (centres unmarked) , what IC50 is on record?
Ans. < 100 nM

Qu. Could you share which IC50 value was measured for CC(C)N1CC[C@@H](c2ccc(-c3cc4c(N5CCN(C(=O)C6CC6)[C@H](C)C5)ccnn4c3)cc2)C1 ?
Ans. < 100 nM

Every entry's value here was drawn from patent US10233186B2.
